Documented pIC50 across a set of compounds
Molecular target: Zcchc11 enzyme (Homo sapiens)
Construct: made in house; host or cells: HEK293 cells (Zcchc11); E. coli Rosetta II (LIN28A)
Sequence (Q5TAX3 212-1420): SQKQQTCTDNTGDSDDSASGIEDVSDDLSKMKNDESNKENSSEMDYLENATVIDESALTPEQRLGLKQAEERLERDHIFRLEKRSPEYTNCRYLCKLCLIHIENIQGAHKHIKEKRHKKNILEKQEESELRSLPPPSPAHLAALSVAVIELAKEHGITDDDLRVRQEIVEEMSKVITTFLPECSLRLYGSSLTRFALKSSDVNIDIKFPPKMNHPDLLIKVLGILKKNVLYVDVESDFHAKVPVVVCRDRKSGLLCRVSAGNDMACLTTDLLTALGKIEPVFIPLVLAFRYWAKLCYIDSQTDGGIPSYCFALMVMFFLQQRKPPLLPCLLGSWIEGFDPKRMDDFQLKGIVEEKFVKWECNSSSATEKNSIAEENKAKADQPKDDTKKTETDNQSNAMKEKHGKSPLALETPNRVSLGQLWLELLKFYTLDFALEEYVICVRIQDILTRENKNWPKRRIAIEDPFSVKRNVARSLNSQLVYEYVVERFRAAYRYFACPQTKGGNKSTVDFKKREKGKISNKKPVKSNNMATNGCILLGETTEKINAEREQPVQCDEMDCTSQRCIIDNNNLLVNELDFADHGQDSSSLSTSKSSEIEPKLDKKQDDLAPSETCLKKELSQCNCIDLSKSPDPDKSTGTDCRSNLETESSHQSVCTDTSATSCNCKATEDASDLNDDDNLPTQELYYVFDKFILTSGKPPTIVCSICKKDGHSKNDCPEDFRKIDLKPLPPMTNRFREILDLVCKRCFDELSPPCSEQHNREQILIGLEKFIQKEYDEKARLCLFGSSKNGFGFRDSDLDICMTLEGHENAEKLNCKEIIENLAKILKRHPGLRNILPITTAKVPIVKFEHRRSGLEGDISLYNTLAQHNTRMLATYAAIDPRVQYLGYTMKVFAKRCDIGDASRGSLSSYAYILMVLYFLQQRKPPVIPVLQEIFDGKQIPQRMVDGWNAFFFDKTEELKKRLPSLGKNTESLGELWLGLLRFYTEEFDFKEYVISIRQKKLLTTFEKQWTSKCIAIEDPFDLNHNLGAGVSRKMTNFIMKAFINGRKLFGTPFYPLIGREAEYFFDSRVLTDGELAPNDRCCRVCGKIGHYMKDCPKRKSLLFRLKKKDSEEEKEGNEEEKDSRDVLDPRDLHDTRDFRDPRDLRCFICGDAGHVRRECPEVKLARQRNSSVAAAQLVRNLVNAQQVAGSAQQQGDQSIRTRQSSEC
Assay: TUTase assay (Zcchc11 assay, Lin28a-dependent polyuridylation of pre-let-7)
Type: biochemical
Conditions: Lin28a-dependent Zcchc11 (Z11) TUTase assay; read-out: Potency Lin28a-dep Z11 IC50
pIC50: −log10 of the molar value.

Exercise: Would you kindly share the measured pIC50 for `O=C(O)c1cn(-c2ccc(O)cc2F)c2cc(N3CCC[C@@H]3COc3ccccn3)c(F)cc2c1=O` ?
Key: 5.00 to 6.00

Exercise: Would you kindly share the measured pIC50 for CN(C)C1CN(c2ccc(-n3cc(C(=O)O)c(=O)c4cc(Cl)c(N5CCC6CC65COc5ncccc5Cl)cc43)cn2)C1 (stereo not drawn) ?
Key: ≥ 6.00

---
Exercise: Would you kindly share the measured pIC50 for `O=C(O)c1cn(-c2ccc(N3CCC3)nc2)c2cc(N3CCC[C@@H]3COc3ncccc3Cl)c(Br)cc2c1=O` ?
Key: ≥ 6.00

Exercise: Would you kindly share the measured pIC50 for COc1cnc(OC[C@H]2CC3CC3N2c2cc3c(cc2Cl)c(=O)c(C(=O)O)cn3-c2ccnc(N)c2)c(Cl)c1 (stereo partly drawn) ?
Key: ≥ 6.00

Exercise: Would you kindly share the measured pIC50 for `O=C(O)c1cn(C2CCOCC2)c2cc(N3CCC[C@@H]3COc3ccccn3)c(F)cc2c1=O` ?
Key: 5.00 to 6.00

Exercise: Would you kindly share the measured pIC50 for COC1CC(n2cc(C(=O)O)c(=O)c3cc(F)c(N4CCC[C@@H]4COc4ccccn4)cc32)C1 (stereo partly drawn) ?
Key: 5.00 to 6.00

Exercise: Would you kindly share the measured pIC50 for CS(=O)(=O)NC1CCC(n2cc(C(=O)O)c(=O)c3cc(F)c(N4CCC[C@@H]4COc4ccccn4)cc32)CC1 (stereo partly drawn) ?
Key: 5.00 to 6.00

Exercise: Would you kindly share the measured pIC50 for `CN1CC(c2ccc(-n3cc(C(=O)O)c(=O)c4cc(Cl)c(N5CCC[C@@H]5COc5ncccc5Cl)cc43)cn2)C1` ?
Key: ≥ 6.00

Exercise: Would you kindly share the measured pIC50 for `N#Cc1cc2c(=O)c(C(=O)O)cn(-c3ccc(N)nc3)c2cc1N1CCC[C@@H]1COc1ncccc1Cl` ?
Key: ≥ 6.00

Exercise: Would you kindly share the measured pIC50 for `COCCNc1cnc(-n2cc(C(=O)O)c(=O)c3cc(Cl)c(N4CCC[C@@H]4COc4ncccc4Cl)cc32)cn1` ?
Key: ≥ 6.00

Exercise: Would you kindly share the measured pIC50 for `COc1ccnc(OC[C@H]2C[C@H]3C[C@H]3N2c2nc3c(cc2Cl)c(=O)c(C(=O)O)cn3-c2ccc(N3CC(N(C)C)C3)nc2)c1Cl` ?
Key: ≥ 6.00

Exercise: Would you kindly share the measured pIC50 for `CN1CC2(C1)CN(c1ccc(-n3cc(C(=O)O)c(=O)c4cc(Cl)c(N5CCC[C@@H]5COc5ncccc5Cl)cc43)cn1)C2` ?
Key: ≥ 6.00

Exercise: Would you kindly share the measured pIC50 for `CN(CCN1CCC1)c1ccc(-n2cc(C(=O)O)c(=O)c3cc(Cl)c(N4CCC[C@@H]4COc4ncccc4Cl)cc32)cn1` ?
Key: ≥ 6.00

Exercise: Would you kindly share the measured pIC50 for `CS(=O)(=O)Nc1ccc(-n2cc(C(=O)O)c(=O)c3cc(F)c(N4CCC[C@@H]4COc4ccccn4)cc32)cc1` ?
Key: ≥ 6.00

Exercise: Would you kindly share the measured pIC50 for `O=C(O)c1cn(-c2ccc(NS(=O)(=O)C3CC3)cc2)c2cc(N3CCC[C@@H]3COc3ncccc3Cl)c(Cl)cc2c1=O` ?
Key: ≥ 6.00

Exercise: Would you kindly share the measured pIC50 for `O=C(O)c1cn(-c2cn[nH]c2)c2cc(N3CCC[C@@H]3COc3ncccc3Cl)c(Cl)cc2c1=O` ?
Key: 5.00 to 6.00

Exercise: Would you kindly share the measured pIC50 for `COc1ccc(Cl)c(OC[C@H]2CC(C)(C)CN2c2cc3c(cc2Cl)c(=O)c(C(=O)O)cn3-c2ccnc(N)c2)n1` ?
Key: ≥ 6.00

Exercise: Would you kindly share the measured pIC50 for `O=C(O)c1cn(-c2cnccn2)c2cc(N3CCC[C@@H]3COc3ccccn3)c(F)cc2c1=O` ?
Key: 5.00 to 6.00

Exercise: Would you kindly share the measured pIC50 for `CN(C)C1CN(c2ccc(-n3cc(C(=O)O)c(=O)c4cc(F)c(N5CCC[C@@H]5COc5cc(O)ccn5)c(F)c43)cn2)C1` ?
Key: ≥ 6.00

Exercise: Would you kindly share the measured pIC50 for `COCCN(C)C1CN(c2ccc(-n3cc(C(=O)O)c(=O)c4cc(Cl)c(N5CCC[C@@H]5COc5ncccc5Cl)cc43)cn2)C1` ?
Key: ≥ 6.00

Exercise: Would you kindly share the measured pIC50 for `O=C(O)c1cn(-c2ccc3c(c2)CCOC3)c2cc(N3CCC[C@@H]3COc3ncccc3Cl)c(Cl)cc2c1=O` ?
Key: ≥ 6.00

Exercise: Would you kindly share the measured pIC50 for `CN(C)C1CN(c2ccc(-n3cc(C(=O)O)c(=O)c4cc(F)c(N5CCC[C@@]5(C)COc5ncccc5Cl)nc43)cn2)C1` ?
Key: ≥ 6.00

Exercise: Would you kindly share the measured pIC50 for `CNCCNc1ccc(-n2cc(C(=O)O)c(=O)c3cc(Cl)c(N4CCC[C@@H]4COc4ncccc4Cl)cc32)cn1` ?
Key: ≥ 6.00

Exercise: Would you kindly share the measured pIC50 for `COCCNC1CN(c2ccc(-n3cc(C(=O)O)c(=O)c4cc(Cl)c(N5CCC[C@@H]5COc5ncccc5Cl)cc43)cn2)C1` ?
Key: ≥ 6.00

Exercise: Would you kindly share the measured pIC50 for `Cc1cccnc1OC[C@H]1CCCN1c1cc2c(cc1F)c(=O)c(C(=O)O)cn2-c1ccc2[nH]ccc2c1` ?
Key: ≥ 6.00

Exercise: Would you kindly share the measured pIC50 for `COc1ccc(Cl)c(-n2cc(C(=O)O)c(=O)c3cc(F)c(N4CCC[C@@H]4COc4ccccn4)cc32)c1` ?
Key: 5.00 to 6.00

Exercise: Would you kindly share the measured pIC50 for `CN(C)[C@@H]1CCN(c2ccc(-n3cc(C(=O)O)c(=O)c4cc(Cl)c(N5CCC[C@@H]5COc5ncccc5Cl)cc43)cn2)C1` ?
Key: ≥ 6.00
